- assay_protocol: modulators of HCV replicon luciferase signal, primary screen, HCV replication inhibitor project, Huh7 cells, luciferase reporter (AID 1109);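 note: huh7 hepatoma cells harbouring a luciferase neomycin HCV replicon reporter; luciferase luminescence as measure of HCV replicon replication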
- experimental_parameters: 48 h, higher = more signal
property_measured: z-score

>>> measured_value("C[C@]1(C(=O)NC2CC2)c2ccccc2C(=O)N(Cc2cc(F)cc(C(F)(F)F)c2)[C@H]1c1ccc(CO)cc1")
-0.782
>>> measured_value("O=C1O[C@@H](c2ccccc2)[C@@H](c2ccccc2)N2[C@@H](c3ccc(OCCO)cc3)[C@]3(C(=O)Nc4ccc(C#CC5=CCCCC5)cc43)[C@@H](C(=O)Nc3nc4ccccc4s3)[C@H]12")
-1.88
>>> measured_value("C=CCOC(=O)[C@H]1[C@@H]2C(=O)O[C@@H](c3ccccc3)[C@@H](c3ccccc3)N2[C@@H](c2ccc(OCCOC(=O)[C@H]3C[C@H]4C(=O)NCC(=O)N4[C@H]3c3cccc(OCCO)c3)cc2)[C@]12C(=O)Nc1ccc(I)cc12")
-0.903
>>> measured_value("[N-]=[N+]=NCc1ccccc1[C@H]1OC(c2ccc(OCCCO)cc2)=N[C@@]1(Cc1ccccc1N=[N+]=[N-])C(N)=O")
-1
>>> measured_value("C[C@]12C(=O)N(CCO)[C@@H]3C(=O)N(c4ccc(Cl)cc4)CC=CC31O[C@@H]1/C=C\\CCCOC(=O)C12 (stereo partly specified)")
-0.445
>>> measured_value("CC(C)(C)OC(=O)CC[C@@]1(C(N)=O)N=C(c2ccc(OCCCO)cc2)O[C@@H]1c1ccccc1CN=[N+]=[N-]")
0.0506

---

- assay_protocol: PSAC antagonists in infected red cells, primary screen, cell-based, P. falciparum Indochina, OD700, 1 h (AID 1154)
- experimental_parameters: P. falciparum Indochina infected RBC osmotic lysis, called active from +8 up or from −8 down
The source made the active and inactive calls.
Labels: 1 for active, -1 for inactive

>>> class_label("CC[C@@H](O[Si](C#C[Si](C(C)C)(C(C)C)C(C)C)(C(C)C)C(C)C)c1cn([C@H](CO)Cc2ccccc2)nn1")
-1
>>> class_label("[N-]=[N+]=NCc1ccccc1[C@H]1OC(c2ccc(OCCCO)cc2)=N[C@@]1(CCS(=O)(=O)c1ccccc1)C(=O)NCCN1CCOCC1")
1
>>> class_label("O=C1C2C=CC(C(O)C(c3ccccc3)c3ccccc3)N(Nc3ccccc3F)C2C(=O)N1c1ccccc1 (stereo not given)")
-1
>>> class_label("O=C1O[C@H](c2ccccc2)[C@H](c2ccccc2)N2[C@H]1[C@@H](C(=O)N1CCCCCCC1)[C@]1(C(=O)Nc3ccc(C#CCCO)cc31)[C@H]2c1ccc(O)cc1")
-1
>>> class_label("CCCCC(=C=CC[C@H](O)c1ccccc1OCCO)CCO")
-1

---

- assay_protocol: small-molecule microarray binders of probe aEGFR, primary screen, biochemical, biotinylated probe, 635/667 nm fluorescence (AID 1097);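 note: probe is a biotinylated anti-EGFR antibody binding compounds printed on slides; score combines fluorescence near 667 nm and signal to noise of each spot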
- experimental_parameters: higher = more signal
property_measured: composite z-score

>>> measured_value("C[C@@]1([C@@H](NS(=O)(=O)c2cccc3cccnc23)c2ccc(-c3ccccc3)cc2)C[C@H]1C1CCCCC1")
-0.0316
>>> measured_value("CC[C@@H]1C=C(C(=O)O)[C@H](c2cccc(Cl)c2)N1S(=O)(=O)c1ccc(C)cc1")
-0.128
>>> measured_value("CCc1cccc(NC(=O)O[C@H]2[C@H](OC(=O)Nc3ccccc3-c3ccccc3)[C@H](OC(=O)Nc3ccccc3-c3ccccc3)[C@@H](OC)O[C@@H]2CO)c1")
-0.0232
>>> measured_value("O=C1N(Cc2ccccc2)Cc2ccccc2C[C@@]12COC(c1ccc(OCCCO)cc1)=N2")
-0.0315
>>> measured_value("C=CCNC(=O)[C@H]1[C@@H]2C(=O)O[C@@H](c3ccccc3)[C@@H](c3ccccc3)N2[C@@H](c2ccc(OCCO)cc2)[C@]12C(=O)Nc1ccc(C#Cc3ccc(OC)cc3)cc12")
0.166
>>> measured_value("C=C(COC)/C(=C/C[C@@H](OC(C)=O)c1cccc(OCCO)c1)c1cnc2ccccc2c1")
-0.0653
>>> measured_value("COc1ccc([Si](C)(C)[C@@H]2[C@@H](CC(=O)N(CCO)Cc3ccccc3)O[C@]3(C(=O)N(Cc4cccc(I)c4)c4ccccc43)[C@H]2C)cc1")
0.0102

---

- assay_protocol: fission yeast growth modulation, primary screen, strain 972, OD600, 24 h, no modulator (AID 1090);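 note: basal condition with compound alone and no growth modifier present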
- experimental_parameters: S. pombe 972 growth, called active from +8 up or from −8 down
Calls of active or inactive are those of the source.
Labels: active, inactive

>>> class_label("C=C(C(=O)CC[C@@H](OC(=O)c1ccccc1-c1ccccc1C(=O)O)c1cccc(OCCO)c1)C(C)C")
"inactive"
>>> class_label("C=CCOC(=O)[C@H]1[C@@H]2C(=O)O[C@@H](c3ccccc3)[C@@H](c3ccccc3)N2[C@@H](c2ccc(OCCOC(=O)[C@H]3C[C@H]4C(=O)NCC(=O)N4[C@H]3c3cccc(OCCO)c3)cc2)[C@]12C(=O)Nc1ccc(I)cc12")
"inactive"
>>> class_label("O=C(N1CCOCC1)[C@]1(CCS(=O)(=O)c2ccccc2)N=C(c2ccc(OCCCO)cc2)O[C@@H]1c1ccccc1")
"inactive"
>>> class_label("COc1cc(Cc2cc3c(c(CCc4ccccc4)n2)[Si](C(C)C)(C(C)C)O[C@H]3c2ccccc2)cc(OC)c1OC")
"active"
>>> class_label("C[N+](C)(C)CCCC[C@@H]1NC(=O)[C@H]2C[C@@H](C(=O)NCCCCCN)[C@@H](c3ccc(O)cc3)N2C1=O")
"inactive"
>>> class_label("CCCCCCCCCCC(O)C1C=CC2C(=O)N(C)C(=O)C2N1Nc1ccccc1 (centres undefined)")
"inactive"
>>> class_label("COCCCNC(=O)[C@@]1(c2ccc([N+](=O)[O-])cc2)CC(=O)N(C2CCCCC2)[C@@H]1c1ccc(CO)cc1I")
"inactive"
>>> class_label("Cc1c(NC(=O)/C(C#N)=C/C=C/c2ccc([N+](=O)[O-])cc2)c(=O)n(-c2ccccc2)n1C")
"inactive"
>>> class_label("C=C(COC)C(=O)CC[C@H](OC(C)=O)c1ccc(CO)o1")
"inactive"
>>> class_label("O=C1O[C@H](c2ccccc2)[C@H](c2ccccc2)N2[C@H]1[C@@H](C(=O)O)[C@]1(C(=O)Nc3ccc(C#CC4(O)CCCCCC4)cc31)[C@H]2c1ccccc1OCCO")
"inactive"
>>> class_label("C=CCNC(=O)[C@@H]1[C@H]2C(=O)O[C@H](c3ccccc3)[C@H](c3ccccc3)N2[C@H](c2ccc(OCCO)cc2)[C@@]12C(=O)Nc1ccc(C#CCNC(N)=O)cc12")
"inactive"
>>> class_label("O=C1C2C=CC(C(O)c3ccccn3)N(Nc3ccc([N+](=O)[O-])cc3)C2C(=O)N1c1ccccc1 (centres undefined)")
"inactive"
>>> class_label("O=C1O[C@H](c2ccccc2)[C@H](c2ccccc2)N2[C@H]1[C@@H](C(=O)N1CCN(c3ncccn3)CC1)[C@]1(C(=O)Nc3ccc(C#CC4(O)CCCCCC4)cc31)[C@H]2c1ccc(O)cc1")
"inactive"
>>> class_label("C=CCNC(=O)[C@@H]1[C@H]2C(=O)O[C@H](c3ccccc3)[C@H](c3ccccc3)N2[C@H](c2ccc(O)cc2)[C@@]12C(=O)Nc1ccc(C#CC3=CCCCC3)cc12")
"inactive"

---

- Test system: XIP peptide (Xip251-270)
- assay_protocol: small-molecule binders of XIP peptide, primary screen, biochemical, small-molecule microarray, fluorescence 635/667 nm, 0.5 µg/mL protein (AID 1183)
- experimental_parameters: small-molecule microarray binding, fluorescence 635 nm; higher = more signal
property_measured: composite z-score

>>> measured_value("[N-]=[N+]=Nc1ccccc1C[C@]1(C(N)=O)COC(c2ccc(OCCCO)cc2)=N1")
0.546
>>> measured_value("COC(=O)C(CC#Cc1ccc2c(c1)[C@]1(C(=O)N2)[C@H](C(=O)N2CCN(c3ncccn3)CC2)[C@H]2C(=O)O[C@H](c3ccccc3)[C@H](c3ccccc3)N2[C@@H]1c1ccc(O)cc1)C(=O)OC")
0.782
>>> measured_value("COCCOC(=O)N1C(=O)[C@@]2(c3cc(C#CC4(O)CCCCCC4)ccc31)[C@H](C(N)=O)[C@H]1C(=O)O[C@H](c3ccccc3)[C@H](c3ccccc3)N1[C@@H]2c1ccc(OCCO)cc1")
0.73
>>> measured_value("CC(=O)NCCCC[C@@H]1NC(=O)[C@H]2C[C@@H](C(=O)O)[C@@H](c3cccc(OCCO)c3)N2C1=O")
0.806
>>> measured_value("CCCCC(=C=CC[C@@H](O)c1ccccc1OCCO)C[C@@H](O)c1ccccn1")
0.338
>>> measured_value("COC(=O)[C@@]1(Cc2ccccc2)[C@H]2c3cc(C(=O)N(C)C)n(CCF)c3C[C@H]2CN1C(=O)c1ccccc1")
-0.504
>>> measured_value("CC[C@@H](O[Si](C#C[Si](C(C)C)(C(C)C)C(C)C)(C(C)C)C(C)C)c1cn(Cc2cccc(Cl)c2)nn1")
-0.0319
